tested on: U2OS; experiment: Multiplex assay against U2OS; format: toxicity, cell-based; conditions: human, 12 h, 1 µM, compound concentration 1 uM, replicate 1
reported_endpoint: Population Normal (%)
Numbers only, in %.

- compound: "COc1cc(N2CCN(C)CC2)ccc1Nc1ncc2c(n1)N(C)c1ccccc1C(=O)N2C"
  endpoint_unit: "%"
  Population Normal (%): 93
- compound: "Cl.O=c1c2cccn2c2ccccc2n1CCCN1CCC(c2ccc(Cl)cc2)CC1"
  endpoint_unit: "%"
  Population Normal (%): 92
- compound: "COCC(=O)NC/C=C/c1ccc2ncnc(Nc3ccc(Oc4ccc(C)nc4)c(C)c3)c2c1"
  endpoint_unit: "%"
  Population Normal (%): 96

Fill in Population Normal (%) for each of the 2 compounds listed.
1. Cl.Oc1ccc2c3c1O[C@H]1c4[nH]c5c(c4C[C@@]4(O)[C@@H](C2)N(CC2CC2)CC[C@]314)C[C@@]1(O)[C@H]2Cc3ccc(O)c4c3[C@@]1(CCN2CC1CC1)[C@H]5O4
2. COc1cc2ncnc(Nc3ccc(F)c(Cl)c3)c2cc1NC(=O)/C=C/CN1CCCCC1 [DACOMITINIB ANHYDROUS]

Response:
93
93
